Tested on: Plasmodium falciparum strain D6 (mefloquine-resistant, chloroquine-sensitive)
Assay: In vitro drug sensitivity assay (3H-hypoxanthine incorporation), strain D6
Format: cell-based
Conditions: Plasmodium falciparum; strain D6; 3H-hypoxanthine incorporation, 42 hours, 37° C; read-out: IC50 (uM), D6
Method: Plasmodium falciparum strains W2 (chloroquine-resistant, mefloquine-sensitive) and D6 (mefloquine-resistant, chloroquine-sensitive)were cultured in a medium consisting of RPMI-1640, 25 mM HEPES, 25 mM NaHCO3, and 10% (v/v) fresh frozen human plasma. […] The activities of the compounds tested were determined by comparing the incorporation of ^3 H-hypoxanthine to drug concentration using computerized non-linear regression analysis. […]
Returns: string. Value is met if measured IC50 is below 0.09 µM, and not met if it is greater than or equal to it.

- record-smiles: "COc1cc(C(=N)N)ccc1OCCCCCOc1ccc(C(=N)N)cc1OC"
  class-label: "not met"
- record-smiles: "N=C(N)c1ccc(OCCCCCOc2ccc(C(=N)N)cc2N)c(N)c1"
  class-label: "met"
- record-smiles: "N=C(N)c1ccc(OCCCCCCOc2ccc(C(=N)N)cc2)cc1"
  class-label: "not met"
- record-smiles: "N=C(N)c1cccc(OCCCOc2cccc(C(=N)N)c2)c1"
  class-label: "not met"
- record-smiles: "N=C(N)c1cccc(OCCCCOc2cccc(C(=N)N)c2)c1"
  class-label: "met"
- record-smiles: "COc1cc(C(=N)N)ccc1OCCCOc1ccc(C(=N)N)cc1OC"
  class-label: "met"
- record-smiles: "N=C(N)c1cccc(OCCCCCCOc2cccc(C(=N)N)c2)c1"
  class-label: "not met"
- record-smiles: "N=C(N)c1ccc(OCCCCCOc2ccc(C(=N)N)cc2Cl)c(Cl)c1"
  class-label: "not met"
- record-smiles: "c1cc(C2=NCCN2)ccc1OCCCOc1ccc(C2=NCCN2)cc1"
  class-label: "met"
- record-smiles: "N=C(N)c1ccc(OCCCCOc2ccc(C(=N)N)cc2)cc1"
  class-label: "met"
